assay-summary: Plasma stability: incubation in human plasma, UPLC-MS quantification
Type: in vitro ADME
experimental-conditions: human, human plasma (EDTA) from healthy volunteers; first experiment, plasma of two healthy volunteers, 37° C., 0.2 mM, 3 hours (FIG. 4A); read-out: peptide available after incubation in plasma
quantity-measured: remaining at 3 h, 0.2 mM (%)
// return numeric value only (unit: %, not printed)

[[record]]
compound = "CC[C@@H](C)[C@@H](NC(=O)[C@@H](CC(C)C)NC(=O)[C@@H](C)NC(=O)[C@H](NC(=O)[C@@H](CCCNC(=N)N)NC(=O)[C@H]1CCCN1C(=O)[C@@H](CO)NC(=O)[C@@H](CC(C)C)NC(=O)[C@@H](Cc1ccccc1)NC(=O)[C@@H](CO)NC(=O)[C@@H](CCCCN)NC(=O)[C@H](N)CCCCN)[C@H](C)O)C(=O)N[C@H](CC(N)=O)C(=O)N[C@H](Cc1ccccc1)C(=O)N[C@H](CC(C)C)C(=O)N[C@@H](C(=O)O)C(C)C"
quantity_measured = "remaining at 3 h, 0.2 mM"
reported_result = 100


Pending compound:
Ask: I am curious: what remaining at 3 h, 0.2 mM value has been reported for CC[C@H](C)[C@H](NC(=O)[C@H](CC(C)C)NC(=O)[C@H](C)NC(=O)[C@@H](NC(=O)[C@H](CCCNC(=N)N)NC(=O)[C@@H]1CCCN1C(=O)[C@H](CO)NC(=O)[C@H](CC(C)C)NC(=O)[C@H](Cc1ccccc1)NC(=O)[C@H](CO)NC(=O)[C@H](CCCCN)NC(=O)[C@@H](N)CCCCN)[C@@H](C)O)C(=O)N[C@@H](CC(N)=O)C(=O)N[C@@H](Cc1ccccc1)C(=O)N[C@@H](CC(C)C)C(=O)N[C@H](C(=O)O)C(C)C [β32_33, KKSFLSPRTALINFLV, reference compound] ?
Result: 70

###

assay-summary: Plasma stability: incubation in human plasma, UPLC-MS quantification
Format: in vitro ADME
experimental-conditions: human, human plasma (EDTA) from healthy volunteers; first experiment, plasma of two healthy volunteers, 37° C., 3 hours (FIG. 4A); read-out: degraded peptide after incubation in plasma
quantity-measured: metabolised at 3 h, 0.2 mM (%)
Please reply with the bare figure in % and do not write the unit itself.

Ask: So what's the measured metabolised at 3 h, 0.2 mM for this one? CC[C@H](C)[C@H](NC(=O)[C@H](CC(C)C)NC(=O)[C@H](C)NC(=O)[C@@H](NC(=O)[C@H](CCCNC(=N)N)NC(=O)[C@@H]1CCCN1C(=O)[C@H](CO)NC(=O)[C@H](CC(C)C)NC(=O)[C@H](Cc1ccccc1)NC(=O)[C@H](CO)NC(=O)[C@H](CCCCN)NC(=O)[C@@H](N)CCCCN)[C@@H](C)O)C(=O)N[C@@H](CC(N)=O)C(=O)N[C@@H](Cc1ccccc1)C(=O)N[C@@H](CC(C)C)C(=O)N[C@H](C(=O)O)C(C)C [β32_33, KKSFLSPRTALINFLV, reference compound]
Result: 30

###

assay-summary: Plasma stability: incubation in human plasma, UPLC-MS quantification
Format: in vitro ADME
experimental-conditions: human, human plasma from healthy volunteers; second experiment, plasma of four healthy volunteers, 3 hours (FIG. 4B); read-out: peptide available after incubation in plasma
quantity-measured: remaining at 3 h, 0.2 mM (%)
Write it as a number; the unit % goes unstated.

Ask: Name the reported remaining at 3 h, 0.2 mM value associated with the compound CC[C@H](C)[C@H](NC(=O)[C@H](CC(C)C)NC(=O)[C@H](C)NC(=O)[C@@H](NC(=O)[C@H](CCCNC(=N)N)NC(=O)[C@@H]1CCCN1C(=O)[C@H](CO)NC(=O)[C@H](CC(C)C)NC(=O)[C@H](Cc1ccccc1)NC(=O)[C@H](CO)NC(=O)[C@H](CCCCN)NC(=O)[C@@H](N)CCCCN)[C@@H](C)O)C(=O)N[C@@H](CC(N)=O)C(=O)N[C@@H](Cc1ccccc1)C(=O)N[C@@H](CC(C)C)C(=O)N[C@H](C(=O)O)C(C)C [β32_33, KKSFLSPRTALINFLV, reference compound]
Result: 17
